# Test system: MDR1
# methodNotes: Cell membrane permeability test on MDR1-MDCK II cells
# Format: in vitro ADME
# runParameters: dog, 2 μM, 150 minutes, pH=7.4
measuredQuantity: Papp A→B at 150 min, 2 μM
Don't forget the unit after the number, please.

| molecule | Papp A→B at 150 min, 2 μM |
| --- | --- |
| CC(C)CC(NC(=O)[C@H](Cc1ccccc1)NC(=O)[C@@H]1CCN1c1ccc(F)cc1)B(O)O (single isomer, unassigned) | 1 nm/s |
| CC(C)CC(NC(=O)[C@H](CC1CC1)NC(=O)[C@@H]1CCN1c1ncc(F)cn1)B(O)O (stereo partly drawn) | 3 nm/s |

Quick one: Papp A→B at 150 min, 2 μM for CC(C)CC(NC(=O)[C@H](Cc1ccccc1)NC(=O)[C@@H]1CCN1c1nccc(-c2ccccc2)n1)B(O)O (stereo partly drawn) ?
4.4 nm/s

Source: patent US11014943B2
